Cited source for all entries: paper PMC3991700

- test.system: FilR1 (Methanosaeta harundinacea 6Ac) (UniProt G7WMP6)
- Sequence: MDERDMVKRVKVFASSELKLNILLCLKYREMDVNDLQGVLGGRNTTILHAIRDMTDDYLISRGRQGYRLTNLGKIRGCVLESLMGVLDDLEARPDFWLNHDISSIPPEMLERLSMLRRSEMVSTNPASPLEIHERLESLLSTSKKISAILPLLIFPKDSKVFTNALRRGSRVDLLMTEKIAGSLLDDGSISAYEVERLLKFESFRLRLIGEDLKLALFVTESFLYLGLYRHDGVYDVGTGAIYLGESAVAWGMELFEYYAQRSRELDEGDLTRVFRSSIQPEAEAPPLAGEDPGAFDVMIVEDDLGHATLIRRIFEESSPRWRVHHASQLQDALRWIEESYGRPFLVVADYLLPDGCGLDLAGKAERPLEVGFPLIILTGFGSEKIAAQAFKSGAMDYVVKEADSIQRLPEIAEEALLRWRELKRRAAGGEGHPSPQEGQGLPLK
- measurement.protocol: EMSA
- stated.conditions: EMSA: 10 mM Tris-HCl pH 8.0, 50 mM KCl, 10 mM MgCl2, 1 mM DTT, 2.5% glycerol, 1% NP-40, 0.5 mM EDTA, 1 ug/uL poly dI-dC, 10 fmol (0.5 nM) biotin probe, 20 uL …
quantity: binding

1. AACGGGTTCCATCTCGATATGATCAAGGGGTGGGGGGTTTATTAATAGGTTGAGGTCCCCCTCTCGAGGCCCGGAAAGGGCAAGAGATCCCCCGATAGATTTTTATCGACCGCATATTATCGAATTTTCCCCCGGCAGAGAGGCGGAGGCTTTATACCATTTTGGCATATCGAGGGTGAGTGGGTGAATCGGCATGGCGGAG (double strand) [Pacs1] :: binds
